Exercise: state measured pKi for each of the binders provided.
- targetEntity: human cloned somatostatin receptor 5 (human) (UniProt P35346)
- Sequence (P35346 whole entry): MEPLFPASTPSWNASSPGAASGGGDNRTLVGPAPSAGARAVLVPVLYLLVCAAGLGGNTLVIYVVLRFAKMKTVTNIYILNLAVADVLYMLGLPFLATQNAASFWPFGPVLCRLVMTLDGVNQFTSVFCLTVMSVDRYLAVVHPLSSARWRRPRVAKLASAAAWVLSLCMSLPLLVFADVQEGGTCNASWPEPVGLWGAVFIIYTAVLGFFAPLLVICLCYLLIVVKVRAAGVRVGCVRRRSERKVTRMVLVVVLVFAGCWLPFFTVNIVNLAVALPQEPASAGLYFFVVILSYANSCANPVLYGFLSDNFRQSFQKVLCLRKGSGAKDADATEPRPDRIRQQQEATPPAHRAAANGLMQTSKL
- test: 125I-Tyr11-SRIF-14 displacement
*1 amine or outer side, *2 acyl side, *3 side chain or, on linkers, in order; H or OH if unused. Bridges are numbered along the chain shown (N, C = ends). [ ]: non-standard residue; d: D form. The star is where a group is joined. DOTA = O=C(O)CN1CCN(CC(=O)O)CCN(CC(=O)*)CCN(CC(=O)O)CC1; N(2-mercaptoethyl)Gly = O=C(CN(CCS[*:3])[*:1])[*:2]
Answers are plain numbers, as −log10 of the molar value.

{"binder": "{DOTA}-[dF]RCF[dW]KTF[N(2-mercaptoethyl)Gly]-NH2 (disulfide 3-9; also: Ga complex of DOTA) [SEQ ID NO: 4]", "pKi": 7.11}
{"binder": "{DOTA}-[dF]RCF[dW]KTF[N(2-mercaptoethyl)Gly]-NH2 (disulfide 3-9; also: Cu complex of DOTA) [SEQ ID NO: 5]", "pKi": 7.09}
{"binder": "{DOTA}-[dF]RCF[dW]KTF[N(2-mercaptoethyl)Gly]-NH2 (disulfide 3-9; also: Lu complex of DOTA) [SEQ ID NO: 6]", "pKi": 7.32}

Q: Look at this binder and give its reported pKi. H-[dF]RCF[dW]KTF[N(2-mercaptoethyl)Gly]-NH2 (disulfide 3-9; SMILES C[C@@H](O)[C@@H]1NC(=O)[C@H](CCCCN)NC(=O)[C@@H](Cc2c[nH]c3ccccc23)NC(=O)[C@H](Cc2ccccc2)NC(=O)[C@@H](NC(=O)[C@H](CCCNC(=N)N)NC(=O)[C@H](N)Cc2ccccc2)CSSCCN(CC(N)=O)C(=O)[C@H](Cc2ccccc2)NC1=O) [SEQ ID NO: 1]
Result: 6.77
